Reference source for all entries: patent US20040121946A9

- assayed_system: HLA-A*0301 (Homo sapiens)
- Assay type: binding
- applied_conditions: Table XXIII, HLA-A3 supermotif-bearing peptides
pIC50: −log10 of the molar value. Where no end group is shown, it is not given here.
assay_endpoint: pIC50

In [3]: df
Out[3]:
                    entry_sequence  assay_endpoint  numeric_value
0        TILWKDIFHK [Her2/neu.166]           pIC50           6.59
1     HVVPWDQLFR [Her2/neu.478.V2]           pIC50           5.13
2  AVPLDSTFYK [Her2/neU.997.V2K10]           pIC50           6.26
3      LVKSPNHVR [Her2/neu.852.R9]           pIC50           5.10

----------
- assayed_system: DRB1*0101 (DR1) (Homo sapiens, UniProt P01903+P01911, A100R/D57E/F55L/F60I/F76Y/I96L/L162R/M171V/P40L/Q125E/R42F/V115G/Y59C)
- measurement_description: HLA class II peptide binding assay, purified HLA
- applied_conditions: Table XIX, DR supermotif peptides; unit not given

given_smiles	DR1 binding data
CC[C@H](C)[C@H](NC(=O)CNC(=O)[C@H](Cc1ccccc1)NC(=O)[C@@H](NC(=O)[C@@H](NC(=O)CNC(=O)[C@H](CC(C)C)NC(=O)[C@@H](N)C(C)C)C(C)C)C(C)C)C(=O)N[C@@H](CC(C)C)C(=O)N[C@H](C(=O)N[C@@H](CCCCN)C(=O)N[C@@H](CCCNC(=N)N)C(=O)N[C@@H](CCCNC(=N)N)C(=O)N[C@@H](CCC(N)=O)C(=O)N[C@@H](CCC(N)=O)C(=O)O)[C@@H](C)CC	0.0700
CC(C)C[C@H](NC(=O)[C@H](CO)NC(=O)[C@H](C)NC(=O)[C@H](CC(N)=O)NC(=O)[C@@H](NC(=O)[C@@H]1CCCN1C(=O)[C@H](CC(C)C)NC(=O)[C@H](Cc1ccc(O)cc1)NC(=O)[C@@H](NC(=O)[C@@H](N)CC(C)C)[C@@H](C)O)[C@@H](C)O)C(=O)N[C@@H](CO)C(=O)N[C@@H](Cc1ccccc1)C(=O)N[C@@H](CC(C)C)C(=O)N[C@@H](CCC(N)=O)C(=O)N[C@@H](CC(=O)O)C(=O)O	0.4900
CC[C@H](C)[C@H](NC(=O)[C@H](CCSC)NC(=O)[C@H](Cc1c[nH]c2ccccc12)NC(=O)[C@H](CS)NC(=O)[C@H](CCCCN)NC(=O)[C@@H](NC(=O)[C@H](CCSC)NC(=O)[C@@H](NC(=O)[C@H](CCSC)NC(=O)[C@H](Cc1ccc(O)cc1)NC(=O)[C@@H](NC(=O)[C@@H](N)CC(=O)O)C(C)C)[C@@H](C)CC)C(C)C)C(=O)N[C@@H](CC(=O)O)C(=O)N[C@@H](CO)C(=O)N[C@@H](CCC(=O)O)C(=O)O	0.0280

----------
- assayed_system: DRB1*0301 (DR3) (Homo sapiens, UniProt P01903+P01911, A100K/A102G/A103R/A169T/F55Y/I96L/K41T/L162R/M171V/P40S/Q125H/Q178H/Q39Y/R42S/S66N/T106N/T262R/W38E/Y61H)
- Sequence (P01903 26-254 limits assumed, other chains not shown): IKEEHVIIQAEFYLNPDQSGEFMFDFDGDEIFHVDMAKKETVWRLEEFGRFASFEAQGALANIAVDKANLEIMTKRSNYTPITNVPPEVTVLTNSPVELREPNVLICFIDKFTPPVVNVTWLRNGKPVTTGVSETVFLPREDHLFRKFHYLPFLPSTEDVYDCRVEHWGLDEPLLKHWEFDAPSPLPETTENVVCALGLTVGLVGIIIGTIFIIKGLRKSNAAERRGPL
- measurement_description: HLA class II peptide binding assay, purified HLA
- applied_conditions: Table XIX, DR supermotif peptides; unit not given
With a cut-off of 0.001, any DR3 binding data strictly below it is called T; any DR3 binding data meeting it or above is called F.

given_smiles	label
CC[C@H](C)[C@H](NC(=O)[C@@H]1CCCN1C(=O)[C@H](CCSC)NC(=O)[C@H](Cc1ccc(O)cc1)NC(=O)[C@H](CO)NC(=O)[C@H](CC(C)C)NC(=O)[C@H](CC(=O)O)NC(=O)[C@@H]1CCCN1C(=O)[C@H](CCCCN)NC(=O)[C@@H](NC(=O)CNC(=O)[C@H](CO)NC(=O)[C@@H]1CCCN1)C(C)C)C(=O)N[C@@H](Cc1c[nH]c2ccccc12)C(=O)N[C@@H](CCCCN)C(=O)O	T
CSCC[C@H](NC(=O)CNC(=O)[C@H](CC(C)C)NC(=O)CNC(=O)[C@H](Cc1ccc(O)cc1)NC(=O)[C@@H](N)CS)C(=O)N[C@@H](CCC(=O)O)C(=O)N[C@@H](Cc1c[nH]cn1)C(=O)N[C@@H](CC(C)C)C(=O)N[C@@H](CCCNC(=N)N)C(=O)N[C@@H](CCC(=O)O)C(=O)N[C@H](C(=O)N[C@@H](CCCNC(=N)N)C(=O)N[C@@H](C)C(=O)N[C@H](C(=O)O)C(C)C)C(C)C	F
CSCC[C@H](NC(=O)[C@H](CCCNC(=N)N)NC(=O)[C@H](CO)NC(=O)[C@H](Cc1ccccc1)NC(=O)[C@H](CCC(=O)O)NC(=O)[C@H](CO)NC(=O)[C@@H](NC(=O)[C@H](CC(C)C)NC(=O)[C@H](CCC(=O)O)NC(=O)[C@H](CCCNC(=N)N)NC(=O)[C@@H](N)Cc1ccccc1)C(C)C)C(=O)N[C@@H](C)C(=O)N[C@@H](CCCNC(=N)N)C(=O)N[C@@H](CC(=O)O)C(=O)N1CCC[C@H]1C(=O)O	F
CC(C)C[C@H](NC(=O)[C@@H]1CCCN1C(=O)[C@H](C)NC(=O)[C@@H](NC(=O)[C@H](CC(N)=O)NC(=O)[C@H](CO)NC(=O)[C@H](C)NC(=O)[C@@H]1CCCN1C(=O)[C@H](CC(=O)O)NC(=O)CNC(=O)[C@H](CC(=O)O)NC(=O)[C@H](Cc1ccccc1)NC(=O)[C@H](CO)NC(=O)[C@H](CCC(=O)O)NC(=O)[C@@H]1CCCN1)[C@@H](C)O)C(=O)O	T
CC(C)C[C@H](NC(=O)[C@@H]1CCCN1C(=O)[C@@H](NC(=O)[C@@H](NC(=O)[C@@H]1CCCN1C(=O)[C@H](CC(=O)O)NC(=O)[C@H](CCC(=O)O)NC(=O)[C@H](CO)NC(=O)[C@H](Cc1ccc(O)cc1)NC(=O)[C@H](CCCNC(=N)N)NC(=O)[C@H](CCC(N)=O)NC(=O)[C@@H](N)CC(C)C)[C@@H](C)O)C(C)C)C(=O)N1CCC[C@H]1C(=O)N[C@@H](CO)C(=O)N[C@@H](CCC(=O)O)C(=O)O	F
CC(C)C[C@H](NC(=O)[C@H](CS)NC(=O)[C@H](Cc1c[nH]cn1)NC(=O)[C@H](CCCNC(=N)N)NC(=O)[C@H](C)NC(=O)[C@H](CC(N)=O)NC(=O)[C@@H](NC(=O)[C@H](Cc1ccc(O)cc1)NC(=O)[C@H](CCC(=O)O)NC(=O)[C@H](CCCNC(=N)N)NC(=O)[C@@H]1CCCN1C(=O)[C@H](CC(C)C)NC(=O)CNC(=O)[C@H](CCC(N)=O)NC(=O)[C@@H](N)CC(C)C)C(C)C)C(=O)O	T

----------
- assayed_system: DRB1*1501 (DR2w2β1) (Homo sapiens, UniProt P01903+P01911)
- measurement_description: HLA class II peptide binding assay, purified HLA
- applied_conditions: Table XXIX; read-out: DR2w2β1 nM
The entries below are paired with their reported IC50.

given_smiles	IC50 [nM]
CC[C@H](C)[C@H](NC(=O)CNC(=O)[C@@H](NC(=O)[C@@H](NC(=O)[C@H](C)NC(=O)[C@H](CO)NC(=O)[C@@H](NC(=O)[C@@H](NC(=O)[C@H](CO)NC(=O)[C@@H](NC(=O)[C@H](CC(C)C)NC(=O)[C@@H]1CCCN1C(=O)[C@H](CO)NC(=O)[C@H](C)N)[C@@H](C)O)[C@@H](C)CC)[C@@H](C)CC)C(C)C)C(C)C)C(=O)N[C@@H](CC(C)C)C(=O)O	96
CC[C@H](C)[C@H](NC(=O)[C@H](CCCCN)NC(=O)[C@H](CCCCN)NC(=O)[C@@H](N)CS)C(=O)N[C@@H](Cc1ccccc1)C(=O)NCC(=O)N[C@@H](CO)C(=O)N[C@@H](CC(C)C)C(=O)N[C@@H](C)C(=O)N[C@@H](Cc1ccccc1)C(=O)N[C@@H](CC(C)C)C(=O)N1CCC[C@H]1C(=O)N[C@@H](CCC(=O)O)C(=O)N[C@@H](CO)C(=O)N[C@@H](Cc1ccccc1)C(=O)O	1300
CC[C@H](C)[C@H](NC(=O)CNC(=O)[C@H](CC(=O)O)NC(=O)[C@H](Cc1ccc(O)cc1)NC(=O)[C@@H]1CCCN1C(=O)[C@H](CCCCN)NC(=O)[C@H](C)NC(=O)CNC(=O)[C@H](Cc1ccccc1)NC(=O)[C@@H](NC(=O)[C@H](CCSC)NC(=O)[C@H](CC(C)C)NC(=O)[C@H](CCC(=O)O)NC(=O)[C@H](Cc1c[nH]c2ccccc12)NC(=O)[C@@H](N)C(C)C)[C@@H](C)O)C(=O)O	92
CSCC[C@H](NC(=O)[C@@H](NC(=O)[C@H](Cc1ccc(O)cc1)NC(=O)[C@H](C)NC(=O)[C@H](CCC(=O)O)NC(=O)[C@@H](N)CC(=O)O)C(C)C)C(=O)N[C@@H](C)C(=O)NCC(=O)N[C@H](C(=O)NCC(=O)N[C@@H](CO)C(=O)N1CCC[C@H]1C(=O)N[C@@H](Cc1ccc(O)cc1)C(=O)N[C@H](C(=O)N[C@@H](CO)C(=O)O)C(C)C)C(C)C	3140
